assayed system: AsPC-1 HiBiT-KRASG12D (Homo sapiens, UniProt P01116, G12D)
Construct: insert the HiBiT tag onto the N-terminus of one or more of the endogenous KRAS alleles; endogenous in cells; host or cells: AsPC-1 (ATCC CRL-1682), CRISPR-Cas9 knock-in clone, one tagged allele
Sequence (P01116 1-188 isoform P01116-2 G12D): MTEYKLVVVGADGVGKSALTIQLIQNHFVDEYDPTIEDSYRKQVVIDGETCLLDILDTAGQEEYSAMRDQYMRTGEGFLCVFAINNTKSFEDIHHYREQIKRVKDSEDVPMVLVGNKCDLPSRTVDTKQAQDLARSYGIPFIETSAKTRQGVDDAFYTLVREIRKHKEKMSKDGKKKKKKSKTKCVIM
test description: HiBiT degradation assay (G12D), AsPC-1 HiBiT-KRASG12D cells
Assay type: cell-based
condition notes: AsPC-1 HiBiT-KRASG12D cells, 24 hours treatment, HiBiT luminescence
quantity measured: DC50

Sample records with DC50:
INSERT INTO results (compound, quantity_measured, endpoint_result) VALUES
  ('Cc1ncsc1-c1ccc([C@H](C)NC(=O)[C@@H]2C[C@@H](O)CN2C(=O)[C@@H](c2cc(N3CCN(C(=O)OC[C@@H]4CC[C@@]5(COc6nc(N7CC8CCC(C7)N8)c7cnc(-c8cc(O)cc(Cl)c8C(F)(F)F)c(F)c7n6)CCCN45)CC3)no2)C(C)C)cc1 (relative stereo)', 'DC50', '< 0.6 µM'),
  ('CCc1cccc2cc(O)cc(-c3ncc4c(N5CC6CCC(C5)N6)nc(OCCN5CCN(c6cc([C@H](C(=O)N7C[C@H](O)C[C@H]7C(=O)N[C@@H](C)c7ccc(-c8scnc8C)cc7)C(C)C)on6)CC5)nc4c3F)c12 (relative stereo)', 'DC50', '1 to 3 µM'),
  ('CCc1cccc2cc(O)cc(-c3ncc4c(N5CC6CCC(C5)N6)nc(OCCN5CCC(OC6CN(c7cc([C@@H](C(=O)N8C[C@H](O)C[C@H]8C(=O)N[C@@H](C)c8ccc(-c9scnc9C)cc8)C(C)C)on7)C6)CC5)nc4c3F)c12', 'DC50', '1 to 3 µM');

Now look at this one.
Query: For the compound shown here, CCc1cccc2cc(O)cc(-c3ncc4c(N5CCCCCC5)nc(OC[C@]56CCCN5[C@@H](COC(=O)N5CCN(c7cc([C@H](C(=O)N8C[C@H](O)C[C@H]8C(=O)N[C@@H](C)c8ccc(-c9scnc9C)cc8)C(C)C)on7)CC5)CC6)nc4c3F)c12 , give the reported DC50.
Reply: < 0.6 µM
